From: patent US20260216164A1

Let's look at some compounds and their measured remaining activity at 10 µM.
EXPERIMENTAL_SYSTEM: Helios (IKZF2) (Homo sapiens, UniProt Q96SW2+Q9UKS7)
Sequence (Q9UKS7 whole entry): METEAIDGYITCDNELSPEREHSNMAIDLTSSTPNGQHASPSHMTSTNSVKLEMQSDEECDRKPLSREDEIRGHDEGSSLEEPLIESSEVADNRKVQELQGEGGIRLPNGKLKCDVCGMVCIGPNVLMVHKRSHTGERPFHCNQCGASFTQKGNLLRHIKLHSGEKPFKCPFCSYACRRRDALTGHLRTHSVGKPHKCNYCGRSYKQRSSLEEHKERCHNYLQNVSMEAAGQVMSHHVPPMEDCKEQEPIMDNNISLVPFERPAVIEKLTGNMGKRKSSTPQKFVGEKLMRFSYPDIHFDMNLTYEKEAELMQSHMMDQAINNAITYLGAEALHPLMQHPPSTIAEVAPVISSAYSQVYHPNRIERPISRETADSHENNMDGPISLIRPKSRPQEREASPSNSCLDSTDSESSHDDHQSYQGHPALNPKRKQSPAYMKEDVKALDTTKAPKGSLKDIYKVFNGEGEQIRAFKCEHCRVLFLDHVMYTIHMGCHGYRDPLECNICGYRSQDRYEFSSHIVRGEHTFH
Sequence (Q96SW2 whole entry): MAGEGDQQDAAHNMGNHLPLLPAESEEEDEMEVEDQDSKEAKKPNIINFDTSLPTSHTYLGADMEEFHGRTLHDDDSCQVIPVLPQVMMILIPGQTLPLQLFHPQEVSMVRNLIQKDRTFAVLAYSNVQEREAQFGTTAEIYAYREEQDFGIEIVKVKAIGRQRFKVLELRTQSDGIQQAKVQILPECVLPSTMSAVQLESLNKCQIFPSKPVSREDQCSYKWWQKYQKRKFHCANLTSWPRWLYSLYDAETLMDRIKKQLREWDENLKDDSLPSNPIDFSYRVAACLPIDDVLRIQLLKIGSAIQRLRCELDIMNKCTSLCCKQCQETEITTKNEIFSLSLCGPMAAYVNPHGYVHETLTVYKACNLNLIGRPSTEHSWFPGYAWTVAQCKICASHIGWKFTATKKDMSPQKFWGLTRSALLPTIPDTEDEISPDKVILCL
Sequence (Q16531 whole entry partner): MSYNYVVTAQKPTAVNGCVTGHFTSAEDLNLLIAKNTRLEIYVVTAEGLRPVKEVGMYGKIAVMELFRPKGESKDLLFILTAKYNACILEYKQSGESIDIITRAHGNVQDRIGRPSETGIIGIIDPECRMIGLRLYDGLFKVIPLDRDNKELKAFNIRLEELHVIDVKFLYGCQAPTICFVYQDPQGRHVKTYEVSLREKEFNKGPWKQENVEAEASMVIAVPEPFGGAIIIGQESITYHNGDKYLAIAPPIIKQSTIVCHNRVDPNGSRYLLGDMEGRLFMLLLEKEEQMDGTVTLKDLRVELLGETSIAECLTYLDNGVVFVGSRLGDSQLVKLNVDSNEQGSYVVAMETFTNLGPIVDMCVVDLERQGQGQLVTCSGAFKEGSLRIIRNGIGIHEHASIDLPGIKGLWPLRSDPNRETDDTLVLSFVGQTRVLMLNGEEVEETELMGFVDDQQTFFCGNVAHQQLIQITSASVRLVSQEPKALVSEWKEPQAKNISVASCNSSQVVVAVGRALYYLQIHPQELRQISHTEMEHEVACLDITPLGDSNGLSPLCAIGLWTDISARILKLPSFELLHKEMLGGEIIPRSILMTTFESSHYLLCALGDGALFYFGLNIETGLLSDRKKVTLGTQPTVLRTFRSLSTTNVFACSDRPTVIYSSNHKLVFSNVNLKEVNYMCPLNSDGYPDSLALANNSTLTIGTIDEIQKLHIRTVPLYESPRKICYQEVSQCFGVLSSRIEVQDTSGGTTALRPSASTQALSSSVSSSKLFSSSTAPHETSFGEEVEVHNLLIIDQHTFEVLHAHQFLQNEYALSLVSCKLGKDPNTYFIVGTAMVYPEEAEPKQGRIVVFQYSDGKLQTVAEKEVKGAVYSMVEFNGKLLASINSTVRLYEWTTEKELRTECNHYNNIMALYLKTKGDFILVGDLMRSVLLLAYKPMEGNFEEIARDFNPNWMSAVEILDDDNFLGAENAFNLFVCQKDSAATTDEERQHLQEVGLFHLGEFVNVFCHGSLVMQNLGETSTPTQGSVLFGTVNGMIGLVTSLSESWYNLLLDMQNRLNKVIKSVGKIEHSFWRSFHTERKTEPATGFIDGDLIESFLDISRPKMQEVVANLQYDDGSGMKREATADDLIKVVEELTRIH
ASSAY_COMMENT: Screening of Helios protein degraders using Nano-Glo HiBiT cell line (HiBiT-IKZF2)
Assay type: cell-based
CONDITION_NOTES: compound 10 μM, 6 hours, HiBiT-Helios knock-in Jurkat cells; read-out: HiBiT-IKZF2 Residual amount of Helios (%) 10 μM

| COMPOUND | remaining activity at 10 µM [%] |
| --- | --- |
| O=C1CCC(N2Cc3cc(C4CCN(C(=O)c5cc6ccc(Cl)c(Cl)c6[nH]5)CC4)ccc3C2=O)C(=O)N1 (stereo not shown) | 92.1 |
| Cc1c(C(=O)N2CC=C(c3ccc4c(c3)CN(C3CCC(=O)NC3=O)C4=O)CC2)[nH]c2cc(Cl)ccc12 (stereo not shown) | 101 |
| Cc1cc2c(C)c(C(=O)N3CCC(c4ccc5c(c4)CN(C4CCC(=O)NC4=O)C5=O)CC3)[nH]c2cc1Cl (stereo not shown) | 20.6 |
| COc1cc2cc(C(=O)N3CCC(c4ccc5c(c4)CN(C4CCC(=O)NC4=O)C5=O)CC3)[nH]c2cc1OC (stereo not shown) | 74.5 |
| Cc1c(C(=O)N2CCC(c3ccc4c(c3)CN(C3CCC(=O)NC3=O)C4=O)CC2)[nH]c2cc(Cl)c(CN3CCNCC3)cc12 (stereo not shown) | 24.6 |
| Cc1c(C(=O)N2CCC(c3ccc4c(c3)CN(C3CCC(=O)NC3=O)C4=O)CC2)[nH]c2cc(CN3CCNCC3)ccc12 (stereo not shown) | 33.6 |
| N#Cc1c(C(=O)N2CCC(c3ccc4c(c3)CN(C3CCC(=O)NC3=O)C4=O)CC2)[nH]c2ccccc12 (stereo not shown) | 76.6 |

====

EXPERIMENTAL_SYSTEM: Helios (IKZF2) (Homo sapiens, UniProt Q96SW2+Q9UKS7)
ASSAY_COMMENT: Screening of Helios protein degraders using Nano-Glo HiBiT cell line (HiBiT-IKZF2)
Type: cell-based
CONDITION_NOTES: compound 10 μM, 6 hours, HiBiT-Helios knock-in Jurkat cells; read-out: HiBiT-IKZF2 Residual amount of Helios (%) 10 μM
Label True when remaining activity at 10 µM is strictly below 80%; at or above that, label False.

| COMPOUND | GROUP |
| --- | --- |
| O=C1CCC(N2Cc3cc(C4CCN(C(=O)c5cc6c(Cl)cc(Cl)cc6[nH]5)CC4)ccc3C2=O)C(=O)N1 (stereo not shown) | False |
| Cc1c(C(=O)N2CCC(c3ccc4c(c3F)CN(C3CCC(=O)NC3=O)C4=O)CC2)[nH]c2cc(Cl)ccc12 (stereo not shown) | True |
| O=C1CCC(N2Cc3cc(C4CCN(C(=O)c5[nH]c6ccccc6c5F)CC4)ccc3C2=O)C(=O)N1 (stereo not shown) | True |
| Cc1c(C(=O)N2CCC(c3ccc4c(c3)CN(C3CCC(=O)NC3=O)C4=O)CC2)[nH]c2cc(Cl)cc(Cl)c12 (stereo not shown) | True |
| Cc1c(C(=O)N2CCC(C#Cc3ccc4c(c3)CN(C3CCC(=O)NC3=O)C4=O)CC2)[nH]c2cc(Cl)ccc12 (stereo not shown) | True |
| O=C1CCC(N2Cc3cc(C4CCN(C(=O)c5cc6cc(Cl)ccc6[nH]5)CC4)ccc3C2=O)C(=O)N1 (stereo not shown) | False |
